- Test system: XIP peptide (Xip251-270) binding
- Experiment: XIP fragment 251-270 binding compounds – biochemical, small-molecule microarray, fluorescence 635/667 nm, 0.1 µg/mL protein, primary screen (AID 1182)
- Setup conditions: fluorescent protein binding, 635 nm, higher = more signal, called active from +8 up or from −8 down
composite z-score for assorted compounds
Readout kind: composite z-score

Compound	Readout value
CCCCC(O)C1C=CC2C(=O)N(c3ccccc3)C(=O)C2N1Nc1ccc([N+](=O)[O-])cc1 (centres undefined)	0.0204
O=C1C2C=CC(C(O)c3cccs3)N(Nc3ccc([N+](=O)[O-])cc3)C2C(=O)N1c1ccccc1 (centres undefined)	0.396
O=C(NC1CC1)[C@@H]1c2ccccc2C(=O)N(Cc2ccc(OC(F)(F)F)cc2)[C@H]1c1ccc(CO)cc1	2.46
[N-]=[N+]=Nc1ccccc1[C@@H]1OC(c2ccc(OCCCO)cc2)=N[C@]1(CCS(=O)(=O)c1ccccc1)C(=O)NCC(O)CO (some centres undefined)	0.0574
